- Experimental system: NKCC1 (Homo sapiens, UniProt P55011)
- Construct: endogenous in cells; host or cells: native HEK293 cells
- Sequence (P55011 whole entry): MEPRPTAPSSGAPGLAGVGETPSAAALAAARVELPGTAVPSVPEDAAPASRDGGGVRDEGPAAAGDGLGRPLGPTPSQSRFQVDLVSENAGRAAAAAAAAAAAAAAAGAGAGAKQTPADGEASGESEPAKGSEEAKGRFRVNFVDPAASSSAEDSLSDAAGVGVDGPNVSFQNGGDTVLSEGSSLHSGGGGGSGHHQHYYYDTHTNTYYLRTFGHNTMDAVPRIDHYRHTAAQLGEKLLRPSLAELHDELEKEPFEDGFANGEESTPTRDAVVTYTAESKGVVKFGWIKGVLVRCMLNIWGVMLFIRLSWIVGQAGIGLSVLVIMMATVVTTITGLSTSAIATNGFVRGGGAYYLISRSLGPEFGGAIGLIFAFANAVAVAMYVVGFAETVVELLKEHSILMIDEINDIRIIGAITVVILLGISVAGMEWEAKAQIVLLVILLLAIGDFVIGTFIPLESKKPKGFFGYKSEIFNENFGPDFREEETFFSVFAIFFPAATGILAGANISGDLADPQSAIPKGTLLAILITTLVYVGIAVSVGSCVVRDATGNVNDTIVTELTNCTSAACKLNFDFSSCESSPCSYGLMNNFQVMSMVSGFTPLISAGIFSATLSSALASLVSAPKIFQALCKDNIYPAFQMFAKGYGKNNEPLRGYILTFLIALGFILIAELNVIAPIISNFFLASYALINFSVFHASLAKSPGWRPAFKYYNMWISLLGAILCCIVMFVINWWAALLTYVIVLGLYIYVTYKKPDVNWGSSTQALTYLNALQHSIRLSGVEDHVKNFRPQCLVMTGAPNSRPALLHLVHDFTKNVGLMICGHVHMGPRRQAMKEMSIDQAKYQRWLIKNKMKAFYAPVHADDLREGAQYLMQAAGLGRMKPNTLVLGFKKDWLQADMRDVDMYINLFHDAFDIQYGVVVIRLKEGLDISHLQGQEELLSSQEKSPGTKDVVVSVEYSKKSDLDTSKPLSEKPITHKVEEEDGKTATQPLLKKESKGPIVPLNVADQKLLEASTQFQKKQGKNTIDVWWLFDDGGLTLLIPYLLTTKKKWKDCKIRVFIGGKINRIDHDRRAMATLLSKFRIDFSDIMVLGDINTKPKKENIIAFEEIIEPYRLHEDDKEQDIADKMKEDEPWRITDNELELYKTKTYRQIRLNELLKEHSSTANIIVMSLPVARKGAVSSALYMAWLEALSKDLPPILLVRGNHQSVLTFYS
- Experiment description: NKCC1-mediated K+ influx (83Rb tracer uptake) in native HEK293 cells, hypertonic saline, 100 μM ouabain
- Format: cell-based
- Condition set: HEK293; 2 μM; no drug = 1000, 20 μM bumetanide = 0; read-out: NKCC1 mediated flux inhibition at 2 μM (%)
- Source text: The compounds of the invention have been tested for evaluating their potency in inhibiting the NKCC1 channel. The test used is a cellular assay expressing the NKCC1 channel: HEK293 cells are human cells derived from embryonic kidney. The inhibitory activity of the compounds has been evaluated in measuring the modification of the potassium flux at 2 concentrations, as described hereafter in the biological protocol. HEK293 cells are human cells derived from embryonic kidney. […]
This listing pairs compounds with measured inhibition at 2 µM.

Compound | inhibition at 2 µM
CCCCNc1cc(C(=O)OC)cc(S(=O)(=Nc2ccccc2)N2CCCCCC2)c1Oc1ccccc1 (centres unmarked) [Compound 99] | 30 to 50%
CCCCNc1cc(C(=O)O)cc(S(=N)(=O)N2Cc3ccccc3C2)c1Oc1ccccc1 (centres unmarked) [Compound 72] | 50 to 75%
CCCCNc1cc(C(=O)OC)cc(S(=N)(=O)N2CCC(c3ccccc3)CC2)c1Oc1ccccc1 (centres unmarked) [Compound 18] | 30 to 50%
CCCCNc1cc(C(=O)O)cc(S(=N)(=O)NCC2CCCCC2)c1Oc1ccccc1 (centres unmarked) [Compound 62] | 10 to 30%
CCCCNc1cc(C(=O)O)cc(S(=N)(=O)Nc2nccs2)c1Oc1ccccc1 (centres unmarked) [Compound 90] | 30 to 50%
CCCCNc1cc(C(=O)NCCOC)cc(S(=N)(=O)NC2CCOCC2)c1Oc1ccccc1 (centres unmarked) [Compound 122] | 30 to 50%
CCCCNc1cc(C(=O)OC)cc(S(=N)(=O)Nc2ccn(C)n2)c1Oc1ccccc1 (centres unmarked) [Compound 21] | 10 to 30%
CCCCNc1cc(C(=O)OC)cc(S(=N)(=O)Nc2ccccc2)c1Oc1ccccc1 (centres unmarked) [Compound 7] | 10 to 30%
CCCCN=S(C)(=O)c1cc(C(=O)O)cc(NCCCC)c1Oc1ccccc1 (centres unmarked) [Compound 131] | 30 to 50%
CCCCNc1cc(C(=O)O)cc(S(=N)(=O)NC2CN3CCC2CC3)c1Oc1ccccc1 (centres unmarked) [Compound 96] | 30 to 50%
CCCCNc1cc(C(=O)O)cc(S(C)(=N)=O)c1Oc1ccccc1 (centres unmarked) [Compound 130] | 10 to 30%
CCCCNc1cc(C(=O)O)cc(S(=N)(=O)NC2CCN(C(C)=O)CC2)c1Oc1ccccc1 (centres unmarked) [Compound 92] | 10 to 30%
CCCCNc1cc(C(=O)OC)cc(S(=N)(=O)N(C)c2ccccc2)c1Oc1ccccc1 (centres unmarked) [Compound 14] | 10 to 30%
CCCCNc1cc(C(=O)O)cc(S(=N)(=O)NCCc2ccccc2)c1Oc1ccccc1 (centres unmarked) [Compound 81] | 30 to 50%
CCCCNc1cc(C(=O)NCC(F)(F)F)cc(S(=N)(=O)NC2CCOCC2)c1Oc1ccccc1 (centres unmarked) [Compound 123] | 30 to 50%
CCCCNc1cc(C(=O)OC)cc(S(=N)(=O)Nc2cccc(OC)c2)c1Oc1ccccc1 (centres unmarked) [Compound 17] | 10 to 30%
CCCCNc1cc(C(=O)N(C)C)cc(S(=N)(=O)Nc2ccccc2)c1Oc1ccccc1 (centres unmarked) [Compound 105] | 30 to 50%
CCCCNc1cc(-c2nc(=O)o[nH]2)cc(S(=O)(=O)Nc2ccccc2)c1Oc1ccccc1 [Compound 127] | 10 to 30%
CCCCNc1cc(C(=O)OC)cc(S(=N)(=O)NCCCC)c1Oc1ccccc1 (centres unmarked) [Compound 46] | 30 to 50%
CCCCNc1cc(C(=O)OC)cc(S(=N)(=O)Nc2cccnc2)c1Oc1ccccc1 (centres unmarked) [Compound 16] | 30 to 50%
CCCCNc1cc(C(=O)O)cc(S(=N)(=O)Nc2cncnc2)c1Oc1ccccc1 (centres unmarked) [Compound 80] | 30 to 50%
CCCCNc1cc(C(=O)O)cc(S(=N)(=O)Nc2ccn(C)n2)c1Oc1ccccc1 (centres unmarked) [Compound 67] | 50 to 75%
CCCCNc1cc(C(=O)O)cc(S(=N)(=O)NCCc2cccnc2)c1Oc1ccccc1 (centres unmarked) [Compound 84] | 10 to 30%
CCCCNc1cc(C(=O)O)cc(S(=N)(=O)Nc2cccc(OC(F)F)c2)c1Oc1ccccc1 (centres unmarked) [Compound 74] | 50 to 75%
CCCCNc1cc(C(=O)O)cc(S(=N)(=O)NCc2cncnc2)c1Oc1ccccc1 (centres unmarked) [Compound 68] | 50 to 75%
CCCCNc1cc(C(=O)O)cc(S(=N)(=O)NC2CCN(C)CC2)c1Oc1ccccc1 (centres unmarked) [Compound 79] | 30 to 50%
CCCCNc1cc(C(=O)OC)cc(S(=N)(=O)NCc2cccc(Cl)c2)c1Oc1ccccc1 (centres unmarked) [Compound 23] | 30 to 50%
CCCCNc1cc(C(=O)OC)cc(S(=N)(=O)NC2CN3CCC2CC3)c1Oc1ccccc1 (centres unmarked) [Compound 48] | 30 to 50%
CCCCNc1cc(C(=O)OC)cc(S(=N)(=O)N2CCc3ccccc32)c1Oc1ccccc1 (centres unmarked) [Compound 19] | 30 to 50%
CCCCNc1cc(C(=O)OC)cc(S(=N)(=O)Nc2ccnnc2)c1Oc1ccccc1 (centres unmarked) [Compound 45] | 30 to 50%
CCCCNc1cc(C(=O)O)cc(S(=N)(=O)NC23CC(C2)C3)c1Oc1ccccc1 (centres unmarked) [Compound 95] | 30 to 50%
CN=S(C)(=O)c1cc(C(=O)OC)cc(N)c1Oc1ccccc1 (centres unmarked) [Compound 132] | 30 to 50%
